Data origin: patent US10144706B2

- TARGET OR SYSTEM: PD-1/PD-L1 interaction (PD-1-Ig / PD-L1-His) (Homo sapiens)
- Construct: hPDL1(18-239)-TVMV-His; TVMV protease site linker (C); made in house; host or cells: HEK293T
- METHOD SUMMARY: PD-1/PD-L1 Homogenous Time-Resolved Fluorescence (HTRF) binding assay
- APPLIED CONDITIONS: IC50 range class; PD-L1-His 10 nM, PD-1-Ig 20 nM; read-out: Range or IC50
pIC50: −log10 of the molar value.
Below is a list of entries, each paired with its recorded pIC50 value.

Solved cases below.
- COMPOUND: "Cc1c(OCCCNC[C@@H](O)c2ccc(F)c(Cl)c2)cccc1-c1cccc(OCCCN2CC[C@@H](O)C2)c1C"
  TARGET OR SYSTEM: "PD-1/PD-L1 interaction (PD-1-Ig / PD-L1-His) (Homo sapiens)"
  pIC50: "7.05 to 7.70"
- COMPOUND: "CC(=O)c1cc(Cl)c(OCc2cccc(-c3cccc(COc4cc(OCc5cncc(C#N)c5)c(CNC(C)(CO)C(=O)O)cc4Cl)c3Cl)c2Cl)cc1OCc1cncc(C#N)c1 (stereo not drawn)"
  TARGET OR SYSTEM: "PD-1/PD-L1 interaction (PD-1-Ig / PD-L1-His) (Homo sapiens)"
  pIC50: "7.70 to 10.40"
- COMPOUND: "Cc1c(COc2cc(OCc3cc(F)cc(F)c3)c(CN(C)[C@@H](CC(C)C)C(=O)O)cc2Cl)cccc1-c1cccc(COc2cc(OCc3cc(F)cc(F)c3)c(CN(C)[C@@H](CC(C)C)C(=O)O)cc2Cl)c1C"
  TARGET OR SYSTEM: "PD-1/PD-L1 interaction (PD-1-Ig / PD-L1-His) (Homo sapiens)"
  pIC50: "7.70 to 10.40"

// returns reported pIC50 for input `Cc1c(OCCCN(C)C)cccc1-c1cccc(OCCCN2CC[C@@H](O)C2)c1C` 7.70 to 10.40

// returns reported pIC50 for input `Cc1c(OCCCNCCCO)cccc1-c1cccc(OCCCNC[C@H](O)CO)c1C` 7.70 to 10.40

// returns reported pIC50 for input `Cc1c(OCCCNC[C@@H](O)c2ccccc2)cccc1-c1cccc(OCCCN2CC[C@@H](O)C2)c1C` 7.05 to 7.70

----------
Below is a list of entries, each paired with its recorded pIC50 value.
- TARGET OR SYSTEM: PD-1/PD-L1 interaction (PD-1-Ig / PD-L1-His) (Homo sapiens, UniProt Q9NZQ7)
- Construct: hPDL1(18-239)-TVMV-His; TVMV protease site linker (C); made in house; host or cells: HEK293T
- Sequence (Q9NZQ7 with tags, fused parts or gaps): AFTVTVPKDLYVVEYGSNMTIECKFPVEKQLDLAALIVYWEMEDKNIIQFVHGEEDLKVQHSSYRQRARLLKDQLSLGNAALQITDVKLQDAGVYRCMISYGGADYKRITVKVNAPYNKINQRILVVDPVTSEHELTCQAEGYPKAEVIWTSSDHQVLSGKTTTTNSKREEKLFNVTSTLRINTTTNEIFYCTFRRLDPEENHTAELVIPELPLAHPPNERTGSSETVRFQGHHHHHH
- METHOD SUMMARY: PD-1/PD-L1 Homogenous Time-Resolved Fluorescence (HTRF) binding assay
- APPLIED CONDITIONS: IC50 range class; PD-L1-His 10 nM, PD-1-Ig 20 nM; read-out: Range or IC50
pIC50: −log10 of the molar value.

- MOLECULE: "Cc1c(OCCCN(C)CCC(N)=O)cccc1-c1cccc(OCCCN(C)CCC(N)=O)c1C [Example 2076]"
  pIC50: "7.05 to 7.70"
- MOLECULE: "Cc1c(COc2cc(OCc3cncc(C#N)c3)c(CN3CCC[C@H](C(=O)O)C3)cc2Cl)cccc1-c1cccc(COc2cc(OCc3cncc(C#N)c3)c(CN3CCC[C@H](C(=O)O)C3)cc2Cl)c1C [Example 40490]"
  pIC50: "7.70 to 10.40"
- MOLECULE: "Cc1c(COc2cc(OCc3cncc(C#N)c3)c(Cl)cc2Cl)cccc1-c1cccc(COc2cc(OCc3cncc(C#N)c3)c(CNC(C)(CO)C(=O)O)cc2Cl)c1C (stereo not drawn) [Example 70030]"
  pIC50: "7.05 to 7.70"
- MOLECULE: "Cc1c(OCCCN2CC[C@@H](O)C2)cccc1-c1cccc(C(=O)NCCCCN2CC[C@@H](O)C2)c1C [Example 3008]"
  pIC50: "5.00 to 6.00"

// returns reported pIC50 for input Cc1c(COc2cc(OCc3ccc(-n4cccn4)nc3)c(CN(C)C(C)(CO)CO)cc2Cl)cccc1-c1cccc(COc2cc(OCc3ccc(-n4cccn4)nc3)c(CN(C)C(C)(CO)CO)cc2Cl)c1C [Example 5023] 7.05 to 7.70

// returns reported pIC50 for input N#Cc1cncc(COc2cc(OCc3cccc(-c4cccc(COc5cc(OCc6cncc(C#N)c6)c(CN6CCCC[C@H]6C(=O)O)cc5Cl)c4)c3)c(Cl)cc2CO)c1 [Example 50020] 7.05 to 7.70
